- assaySystem: hGLP-1R (Homo sapiens)
- Sequence (P43220 24-463): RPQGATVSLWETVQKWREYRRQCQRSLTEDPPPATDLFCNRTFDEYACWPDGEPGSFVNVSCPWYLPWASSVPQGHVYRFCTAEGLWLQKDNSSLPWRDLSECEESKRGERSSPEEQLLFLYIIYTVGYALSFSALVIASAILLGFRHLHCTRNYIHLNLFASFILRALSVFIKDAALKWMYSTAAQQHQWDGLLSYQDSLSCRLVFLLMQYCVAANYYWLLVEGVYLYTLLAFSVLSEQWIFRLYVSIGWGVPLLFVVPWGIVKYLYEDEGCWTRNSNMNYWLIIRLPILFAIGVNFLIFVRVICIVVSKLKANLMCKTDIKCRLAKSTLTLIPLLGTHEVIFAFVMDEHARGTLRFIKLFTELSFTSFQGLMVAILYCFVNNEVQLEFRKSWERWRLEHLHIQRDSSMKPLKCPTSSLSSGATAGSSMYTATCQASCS
- assay: Functional cAMP activation in the presence of 0.1% casein (no HSA);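 note: intracellular cAMP rise after 30 min at 37 °C read by HTRF, normalized between buffer only (0%) and maximal control ligand (100%), four-parameter variable-slope fit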
- Type: cell-based
- experimentalConditions: in the presence of 0.1% casein (no HSA); geometric mean; read-out: Relative cAMP EC50, hGLP-1R
Starred links: 1 amine or outer side, 2 acyl side, 3 side chain; linkers in the order of their positions; H or OH if unused. Non-standard residues stand in square brackets, D forms with d. Groups on a side chain read outwards from the residue. *: point of attachment. C18 diacid = O=C(O)CCCCCCCCCCCCCCCCC(=O)*; αMePhe(2-F) = C[C@](N)(Cc1ccccc1F)C(=O)O; γGlu = O=C(O)[C@H](CCC(=O)[*:2])N[*:1]; αMe4Pal = C[C@](N)(Cc1ccncc1)C(=O)O; αMeY = C[C@](N)(Cc1ccc(O)cc1)C(=O)O; 4Pal = N[C@@H](Cc1ccncc1)C(=O)O; αMeL = CC(C)C[C@](C)(N)C(=O)O; αMeS = C[C@](N)(CO)C(=O)O; Orn = NCCC[C@H](N)C(=O)O; AEEA = NCCOCCOCC(=O)O; Aib = CC(C)(N)C(=O)O
observedProperty: EC50 (nM)
Answer format: numeric, nM implied, no suffix.

These solved cases illustrate the format of a correct answer.
{"columns": ["substance", "assaySystem", "unitAbbrev", "EC50"],
 "data": [
  ["H-Y[Aib]QGT[αMePhe(2-F)]TSD[4Pal][αMeS]I[αMeL]LD[Orn]K([AEEA-γGlu-C18 diacid])AQ[αMe4Pal]EFI[dE][αMeY]LIEGGPPS[Aib][Orn]PPP[Orn]GS-NH2 [Example 1189]", "hGLP-1R (Homo sapiens)", "nM", 0.292],
  ["H-Y[Aib]QGTFTSDFSK[αMeL]LDKK([AEEA-γGlu-C18 diacid])AQ[Aib]QFIEYLLEGGPSSGAPPPSEG-NH2 [Example 51]", "hGLP-1R (Homo sapiens)", "nM", 5.8],
  ["H-Y[Aib]QGTFTSD[4Pal]SQ[αMeL]LDKK([γGlu-γGlu-C18 diacid])AQ[αMe4Pal]AFIE[αMe4Pal]LIE[Aib]GPSSGAPPPSGTGE-NH2 [Example 1119]", "hGLP-1R (Homo sapiens)", "nM", 3.57]
]}

IN: Data request, read-out EC50, for H-Y[Aib]QGTFTSD[4Pal]SQ[αMeL]LDKK([AEEA-γGlu-C18 diacid])AQ[αMe4Pal]AFIEYLIE[Aib]GPSSGAPPPSSS-NH2 [Example 848]
OUT: 2.29
